- Test system: K4 kissing-loop RNA reporter;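 further: bound reporter read as fluorescence of individual clusters on recovered sequencing chips by microscopy, with normalized cluster intensities fitted with a binding model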
- RUN DESCRIPTION: apparent KD of K4 kissing-loop reporter; higher = weaker reporter binding
- EXPERIMENTAL CONDITIONS: Eterna round: R107; input ligand: none
Assign class by apparent KD of K4 kissing-loop reporter: not lower than 400 nM means Met; lower than 400 nM means Not met.

Enquiry: Say whether AAGAGGUAGGCGGCCGCCACUAGUUGUGAACACAUACGAGCCAGUGAUGUUGGUAUUGUGGGCGGUAGGACCGGGCCUACCUGAA [Exclusion - Tryptophan B (Freestyle 19)] shows apparent KD of K4 kissing-loop reporter of 400 nM or more.
Return: Not met

Enquiry: Textbook exercise: given the entry CUUGUACAAGUGAUGUUUGUUAUAUCCGAAGGAGCGUCGUAAUAGACAGGUAGGUCGCGGAGUAAGAUAGUUUUUUUAAUAUCAU [JR_Nu_SSArginiA_Sub029] , state whether its apparent KD of K4 kissing-loop reporter is greater than or equal to 400 nM.
Return: Met

Enquiry: Could you tell me if the measured apparent KD of K4 kissing-loop reporter of GCGGGCGGCUGAAGGAGCGGGCGGGCCCGAGUGAUGUUCGGGUGGGCUGUGAGGCCCGGAGCCCAGGUAGGUCGCGGUUCCGCCC [#2 Same State - Arginine B Attempt #26 (HarryS)] reaches 400 nM or more?
Return: Not met

Enquiry: Record ACGUAGUUCUAGGAUACCAGCCAAGGACGCCAGGACAAAAGUCCUGGCGCCAGUGAUGUUGGCCCUUGGCAGCCUAGAACUACGA [Omei KL Theo B Exc B v5] ; criterion: apparent KD of K4 kissing-loop reporter no lower than 400 nM. Met?
Return: Not met

Enquiry: API: above_or_equal(metric=apparent KD of K4 kissing-loop reporter, cutoff=400 nM) for item AUAUUAAGCGGAAGGAGCGGCUGAACCAGUGAUGUUGGUUAAUCCAAGUGAUGUUGGAAAAGCCAGGUAGGUCGCCGCUAUAUAU [Same State Arg B GF 1]
Return: Met

###

- Tested on: MS2 coat protein
- RUN DESCRIPTION: apparent KD of MS2 coat protein; designed switch direction (-1 OFF switch, 1 ON switch): -1; higher = weaker reporter binding
- EXPERIMENTAL CONDITIONS: input ligand: microRNA oligo, concentration not stated
ENDPOINT NAME: apparent KD of MS2 coat protein
Value and unit, in that order.

Enquiry: Please report apparent KD of MS2 coat protein for the following sequence: AGAUCUAGGACAGGAUAUAUGGAUGUCUUCAUCGAAGAUGAAGACAUCACAUGAGGAUCACCCAUGUAGAAGGGUCCUAGAUCA [Omei Exc(NG) 2Av2] (Eterna round: R96, puzzle: Exclusion NG 2)
Return: 13.5 nM

Enquiry: Identify measured apparent KD of MS2 coat protein corresponding to AGCUGUGGCCGAGGAUAUCUGAACUUUCAAACCGAAAUAUAAUCGGACAUGAGGAUCACCCAUGUAGAGAAGGCGGUCUCAGCA [Eli eng2 - 061] (Eterna round: R96, puzzle: Exclusion NG 2)
Return: 10.5 nM

Enquiry: Indicate its recorded apparent KD of MS2 coat protein; the sequence in question is CACCUGAAGUCAGGAUAUCAUACAUGAGGAUCACCCAUGUAAUAAAUGAGAAUUUCGAAUGUAAUUGAGAAGGGACAAUAAGGC [Ostricism 97 - Jieux - Exclusion NG 2] (Eterna round: R96, puzzle: Exclusion NG 2)
Return: 34 nM

Enquiry: Note apparent KD of MS2 coat protein for the sequence shown: UAUAUAUAGUAAGGAUAUAUAUUUUUUUUUUAAAUAGAAGGUACAGACAUGAGGAUCACCCAUGUUAUAAUAUGGACAUGUGGA [JMF's Solution 3] (Eterna round: R96, puzzle: Exclusion NG 1)
Return: 113 nM

Enquiry: Give recorded apparent KD of MS2 coat protein. UUGGUUGGUGUAGGAUAUGUAUGAGGAUCACCCAUUAAUAAAUUUUAACCACGAGGAUCACCCGUGUAGAAGGACAUUGGUUAU [pwkr exNG2 2xF5 1xFMN.22] (Eterna round: R96, puzzle: Exclusion NG 2)
Return: 42.1 nM

Enquiry: For the sequence CCCAGUUACUGAGGAUAUCCUACAUGAGGAUCACCCAUGUAAUAAAUGAGGAUUUCGGGUGUCUAGGAGAAGGCAGGGAUAGGC [Ostracism 23 - Jieux - Exclusion NG 2] (Eterna round: R96, puzzle: Exclusion NG 2) , give its reported apparent KD of MS2 coat protein.
Return: 28.8 nM

Enquiry: Respond only with apparent KD of MS2 coat protein recorded for UAGAUGGGAGGAUAUGCAUAGAUACAGAUUCAUGUAGUGCUACAUGAGGAUCACCCAUGUAGAAGGCCCGUCUU [JL-ex2-2.20 Mayanne mod] (Eterna round: R96, puzzle: Exclusion 2)
Return: 22.1 nM

Enquiry: Using known records, supply apparent KD of MS2 coat protein for UACAUGAGGAUCACCCAUGUUUUGUCGUGUAUGGUAUUUAUCUAGGAUAUCGAUUUAUUUAACCACGAGAAGGAGAGUAUCAAU [MOD Solution 21 by JMF] (Eterna round: R96, puzzle: Exclusion NG 3)
Return: 36.8 nM

Enquiry: Read the entry GUCUUCAUGACAUGAGGAUCACCCAUGUGUUAUAUUUUUACUAAGGAUAUAUUUUUAAUGUUGAGAUAGAAGGUAGUUUCGGUC [JR_ExcNG3_Sub092] (Eterna round: R96, puzzle: Exclusion NG 3) and write its reported apparent KD of MS2 coat protein.
Return: 79.1 nM

###

- Test system: MS2 coat protein
- RUN DESCRIPTION: apparent KD of MS2 coat protein; designed switch direction (-1 OFF switch, 1 ON switch): -1; higher = weaker reporter binding
- EXPERIMENTAL CONDITIONS: input ligand: FMN 200 uM
ENDPOINT NAME: apparent KD of MS2 coat protein (µM)
Hi! Could you send only the number? It should be in µM, unit omitted.

Enquiry: Return apparent KD of MS2 coat protein (reported value) for this sequence: CAGAUGGGUAACUACACCCACAUGAGGAUCACCCAUGUACACAUAGCUUACGCUCGUCUUAAGCGUGUUUUCGUAGC [Eternabot (L2) Solution 10] (Eterna round: R97, puzzle: Sensor, turn-off variant 1)
Return: 0.032

Enquiry: Look up and report measured apparent KD of MS2 coat protein for this entry: CUGAGUAGUCAGGAUAUGCUGUACAAAAGUACAGCAGAAGGGACUACAUGAGGAUCACCCAUGUUUACUUCAUG [)mei Ex6 B22] (Eterna round: R97, puzzle: Exclusion 6)
Return: 1.26

Enquiry: Answer with the recorded apparent KD of MS2 coat protein of AUUAGCGUAGGAUAUUGAUACAUGUACAUGAGGAUCACCCAUGUGAGGUGAGUCUUGGAUUAAGAAGGGCGAAGAA [EX5 #37] (Eterna round: R97, puzzle: Exclusion 5) only.
Return: 1.08

Enquiry: Please give measured apparent KD of MS2 coat protein of the following entry: UUGUUAUAUGAAGGAUAUACUUAACAUGAGGAUCACCCAUGUGGUGUUGUGAGUGAGUGAGUUUAGUAGAAGGUCAAUUCUUUU [JMF's solution 94] (Eterna round: R96, puzzle: Exclusion NG 2)
Return: 0.735

Enquiry: Input GUUAACGAAGAGGAUAUAUGAUAUCAAAGCUUCAUAGAAGGCUUCACAUGAGGAUCACCCAUGUGAUCUUCAAU [jl-ex6-4.08 ViennaUCT mod] (Eterna round: R97, puzzle: Exclusion 6) , output reported apparent KD of MS2 coat protein.
Return: 0.232

Enquiry: Please give measured apparent KD of MS2 coat protein of the following entry: GCUAGUCAUGUCAGGAUAUGCUGUACCUUGGUACAGCAGAAGGGACAUGAGGAUCACCCAUGUGCCUAGCUAGC [JL-BMX4-4.07] (Eterna round: R97, puzzle: Brourd's mod of Exclusion 4)
Return: 0.412

Enquiry: Give the value of apparent KD of MS2 coat protein reported for the following: CCCGAGCAUGUAGGAUAUGGCUCGGUGUCUGGGCCAGAAGGACAUGAGGAUCACCCAUGUCUGCGGGUGUGGAUAUGAUUUGGG [-32, -31 kcal A 20%] (Eterna round: R96, puzzle: Exclusion NG 1)
Return: 0.0852

Enquiry: State its apparent KD of MS2 coat protein: AGCGGGUUAGGAUAUACCUGGGUAUGAAAAGCCUAACCUCGACAUGAGGAUCACCCAUGUAGAAGGAGCUCGGC [Eternabot (Original) Solution 3] (Eterna round: R97, puzzle: Exclusion 2)
Return: 0.091

Enquiry: Return apparent KD of MS2 coat protein (reported value) for this sequence: UCAAUUAUGACAGGAUAUAGUUUUUGUUUUUCUCUAGAAGGGUCUAUGCACAUGAGGAUCACCCAUGUUCUUUUUAUUUGCAUU [JR_ExcNG1_Sub016] (Eterna round: R96, puzzle: Exclusion NG 1)
Return: 0.0475

Where these numbers come from: the supplement of paper PMC9170038
